Taken from patent US20200024278A1.

# System: SPN 49619
# MEASUREMENT NOTES: MIC, broth microdilution (CLSI), substance alone or ATB combined with compound at 4 or 8 μg/mL
# Type: cell-based, S. pneumoniae
# COND: ATB FEP; compound @4 μg/ml; SPN 49619

{"COMPOUND": "NC[C@@H]1C(c2ncco2)=C[C@@H]2CN1C(=O)N2OS(=O)(=O)[O-].O=C(O)C(F)(F)F.[Na+] [Example 5]", "MIC ATB combined with compound [µg/mL]": 0.063}
{"COMPOUND": "NC[C@@H]1CC(=NOCC(N)=O)[C@@H]2CN1C(=O)N2OS(=O)(=O)[O-].O=C(O)C(F)(F)F.[Na+] [Example 4]", "MIC ATB combined with compound [µg/mL]": 0.063}
{"COMPOUND": "NCCON=C1C[C@@H](C(N)=O)N2C[C@@H]1N(OS(=O)(=O)[O-])C2=O.[Na+] [Example 2]", "MIC ATB combined with compound [µg/mL]": 0.063}
